assay: melting temperature; fluorescence melt of hairpins on a sequencing array, two-state fit, raised by 9.35 °C to match UV melts; conditions: sodium 0.088 M
Returns: string. Value is 1.0 if measured Tm is below 50 °C, and 0.0 if it is greater than or equal to it.

Sequence Input	Group
GAGCTGGGAAACCGGCTC ((((.((....)).))))	0.0
GATCCGGTTCGGATC ((((((...))))))	0.0

Data request: Criterion: Tm strictly below 50 °C. Is it met by GCCGCGCGAAAGCGGTGC ((..(((....)))..)) ?
Data returned: 0.0

----------
experiment: melting temperature; fluorescence melt of hairpins on a sequencing array, two-state fit, raised by 9.35 °C to match UV melts; conditions: sodium 0.088 M
Please note: true applies when Tm is 50 °C or greater, and false applies otherwise.

Example entries begin here.
Sequence Input	Group
GTCGTCGAAAGACTGGAC ((((((....)))..)))	false
GTACCCGAAAGGGCTAC ((((((....))).)))	false
GCTGCTGGAAACGGTAGC (((.(.(....).).)))	false
GCGGGCGGAAACGCCCAC (.(((((....))))).)	true
CGATACGGAAACGTGTCG (((.(((....))).)))	true
GGGGTAGGAAACTGCTCC ((.(.((....)).).))	false

Data request: Decide: Tm of GCATTGCGAAAGCGATGC ((((.((....)).)))) >= 50 °C?
Data returned: true

Data request: Decide: Tm of GAGTACGAAAGTACGCTC ((((((....)))..))) >= 50 °C?
Data returned: true

Data request: Decide: Tm of GCTGTCGGAAACGATGGC ((..(((....)))..)) >= 50 °C?
Data returned: false

Data request: Decide: Tm of GGCGCTCGAAAGAGGGCC (((.(((....))).))) >= 50 °C?
Data returned: true

Data request: Decide: Tm of GTGTCTGGAAACAAACAC ((((.((....)).)))) >= 50 °C?
Data returned: false

Data request: Decide: Tm of ATTTCGAAAGAAAT (((((....))))) >= 50 °C?
Data returned: false

Data request: Decide: Tm of GATCGCATACGCGATC ((((((....)))))) >= 50 °C?
Data returned: true

Data request: Decide: Tm of GCTACGCGAAAGCGAGC (((.(((....)))))) >= 50 °C?
Data returned: true

Data request: Decide: Tm of GTTCACGCGAAAGCGAAC (((..(((....)))))) >= 50 °C?
Data returned: false

----------
test: folding enthalpy; higher = less favourable; fluorescence melt of hairpins on a sequencing array, two-state fit; settings: sodium 0.088 M
Please note: TRUE applies when folding enthalpy is -20 kcal/mol or greater, and FALSE applies otherwise.

Sequence Input	Group
GCGGTGCGAAAGCATGGC ((..(((....)))..))	FALSE
GGTCAAGGAAACTCGACC ((((.((....)).))))	FALSE
GATCTTCGTGAAGATC ((((((....))))))	FALSE

Data request: Decide: folding enthalpy of GGTACCGAAAGGTTAACC ((((((....)))..))) >= -20 kcal/mol?
Data returned: TRUE

Data request: Decide: folding enthalpy of GACTCCGAAAGGAATGTC ((((((....)))..))) >= -20 kcal/mol?
Data returned: TRUE

Data request: Decide: folding enthalpy of GGGATTCGAAAGAAACCC (((.(((....))).))) >= -20 kcal/mol?
Data returned: FALSE

Data request: Decide: folding enthalpy of GTTGTAGGAAACTACAAC (((((((....))))))) >= -20 kcal/mol?
Data returned: FALSE

Data request: Decide: folding enthalpy of GCGAGAATTCGC ((((....)))) >= -20 kcal/mol?
Data returned: FALSE

Data request: Decide: folding enthalpy of GTCGGCGAAAGCCGAGAC ((((((....)))..))) >= -20 kcal/mol?
Data returned: TRUE

Data request: Decide: folding enthalpy of GTCGGCTCGAAAGAGGAC (((..(((....)))))) >= -20 kcal/mol?
Data returned: TRUE

Data request: Decide: folding enthalpy of GCGAAGGTCGC ((((...)))) >= -20 kcal/mol?
Data returned: TRUE

----------
test: melting temperature; fluorescence melt of hairpins on a sequencing array, two-state fit, raised by 9.35 °C to match UV melts; settings: sodium 0.088 M
Recorded Metric: Tm
Remember to quote the unit after the number.

Example entries begin here.
Sequence Input	Test Result
GAGCACGAAAGTGTTCTC ((((((....)))..)))	52.1 °C
CGCGGGCGGAAACGCGCG (((..(((....))))))	65.4 °C
GTCGACGAAAGTCTCGAC ((((((....)))..)))	41.8 °C

For reference, reported Tm for GGTCCTGGAAACAGGACC (((((((....))))))) stands at 69.3 °C

For reference, reported Tm for GTTTTGTCGAAAGACAAC (((..(((....)))))) stands at 37.5 °C

For reference, reported Tm for CGCGGAAAGGTCCGCG ((((((....)))))) stands at 61.9 °C

----------
assay: folding enthalpy; higher = less favourable; fluorescence melt of hairpins on a sequencing array, two-state fit; conditions: sodium 0.088 M
Recorded Metric: folding enthalpy
Remember to quote the unit after the number.

Example entries begin here.
Sequence Input	folding enthalpy
GAAAGAGAAATCTTTC ((((((....))))))	-18.2 kcal/mol
GTCCACGCGAAAGCGGAC (((..(((....))))))	-12.9 kcal/mol
GATCTGGAGTCAGATC ((((((....))))))	-48.3 kcal/mol

For reference, reported folding enthalpy for GCGGGAGGCCGC ((((....)))) stands at -18.4 kcal/mol

For reference, reported folding enthalpy for GGCATGGGAAACCATACC ((.((((....)))).)) stands at -26.2 kcal/mol

For reference, reported folding enthalpy for GTCTCTGGAAACGGAGAC (((((.(....).))))) stands at -34.7 kcal/mol

For reference, reported folding enthalpy for GAGTTCACGAAAGTGCTC (((..(((....)))))) stands at -10.9 kcal/mol

For reference, reported folding enthalpy for GGCGACGGAAACGTCACC ((.((((....)))).)) stands at -33.5 kcal/mol

For reference, reported folding enthalpy for GTATGGGGAAACCTATAC ((((.((....)).)))) stands at -30.3 kcal/mol

----------
experiment: melting temperature; fluorescence melt of hairpins on a sequencing array, two-state fit, raised by 9.35 °C to match UV melts; conditions: sodium 0.088 M
# Tm listing for each entry below
Return type: number; implicit unit °C.

Example entries begin here.
Sequence Input	Reading Unit	Tm
GATCTCGGTAGAGATC ((((((....))))))	°C	66.5
GCTGACGAAAGTCGTAGC ((((((....)))..)))	°C	47.1
GGAGACACGAAAGTGTCC (((..(((....))))))	°C	44.1
GGCACCCGAAAGGGAGCC (((.(((....))).)))	°C	68.6

For reference, reported Tm for GATGAACGAAAGTTAATC (((.(((....))).))) stands at 38.6

For reference, reported Tm for GATCAACCATTTGATC ((((((....)))))) stands at 42.3

For reference, reported Tm for CGAAGCGGAAACGCCTCG (((.(((....))).))) stands at 47.3

----------
assay: melting temperature; fluorescence melt of hairpins on a sequencing array, two-state fit, raised by 9.35 °C to match UV melts; conditions: sodium 0.088 M
# Tm listing for each entry below
Return type: number; implicit unit °C.

Sequence Input	Tm / °C
GGAAACGGAAACGTCTCC (((.(((....))).)))	37.2

For reference, reported Tm for GCCGCTCGAAAGAGGGC (((.(((....)))))) stands at 55.2

For reference, reported Tm for GTACCTCGAAAGAGATAC (((.(((....))).))) stands at 38.7

For reference, reported Tm for GCTGCCACGAAAGTGAGC (((..(((....)))))) stands at 50.2

For reference, reported Tm for CGAGTTCGGAAACGATCG (((..(((....)))))) stands at 30.8

For reference, reported Tm for GCCAGCGAAAGCTTAGGC ((((((....)))..))) stands at 52

For reference, reported Tm for GCTCATGGAAACATGGGC ((.((((....)))).)) stands at 53

For reference, reported Tm for GAGAACCGAAAGGTCCTC (((.(((....))).))) stands at 46.6
